experiment: NCI Yeast Anticancer Drug Screen. Data for the mec2-1 strain (AID 157); conditions: S. cerevisiae mec2-1 strain, at 50.0 µM
Compounds without any hit were thinned out: in the full panel of roughly 79,000, 15% have a hit. Calls of active or inactive are those of the source. Cut-off read from the data, not from the text of the source: active = growth inhibition above about 70%; inactive = the rest.
Classes used: YES (active), NO (inactive)

>  <Compound>
c1ccc(OCCN2CCN(CCOc3ccccc3)CC2)cc1

>  <Qualitative label>
NO

$$$$
>  <Compound>
c1ccc(OCCCOc2ccccc2)cc1

>  <Qualitative label>
NO

$$$$
>  <Compound>
COc1ccc2c(c1)C1(C)CCCC(C)(C(=O)O)C1CC2 (stereo unspecified)

>  <Qualitative label>
YES

$$$$
>  <Compound>
O=C1c2ccccc2-c2nc3ncccc3cc21

>  <Qualitative label>
NO

$$$$
>  <Compound>
CC1(C)OC2COC3(CNO)OC(C)(C)OC3C2O1 (stereo unspecified)

>  <Qualitative label>
NO

$$$$
>  <Compound>
O=c1[nH]c2c([N+](=O)[O-])cc(Cl)cc2nc1/C=C(\O)c1ccc(F)cc1

>  <Qualitative label>
NO

$$$$
